# testedSystem: Microtubule-associated protein tau (Homo sapiens) (UniProt P10636)
# Sequence (P10636 whole entry): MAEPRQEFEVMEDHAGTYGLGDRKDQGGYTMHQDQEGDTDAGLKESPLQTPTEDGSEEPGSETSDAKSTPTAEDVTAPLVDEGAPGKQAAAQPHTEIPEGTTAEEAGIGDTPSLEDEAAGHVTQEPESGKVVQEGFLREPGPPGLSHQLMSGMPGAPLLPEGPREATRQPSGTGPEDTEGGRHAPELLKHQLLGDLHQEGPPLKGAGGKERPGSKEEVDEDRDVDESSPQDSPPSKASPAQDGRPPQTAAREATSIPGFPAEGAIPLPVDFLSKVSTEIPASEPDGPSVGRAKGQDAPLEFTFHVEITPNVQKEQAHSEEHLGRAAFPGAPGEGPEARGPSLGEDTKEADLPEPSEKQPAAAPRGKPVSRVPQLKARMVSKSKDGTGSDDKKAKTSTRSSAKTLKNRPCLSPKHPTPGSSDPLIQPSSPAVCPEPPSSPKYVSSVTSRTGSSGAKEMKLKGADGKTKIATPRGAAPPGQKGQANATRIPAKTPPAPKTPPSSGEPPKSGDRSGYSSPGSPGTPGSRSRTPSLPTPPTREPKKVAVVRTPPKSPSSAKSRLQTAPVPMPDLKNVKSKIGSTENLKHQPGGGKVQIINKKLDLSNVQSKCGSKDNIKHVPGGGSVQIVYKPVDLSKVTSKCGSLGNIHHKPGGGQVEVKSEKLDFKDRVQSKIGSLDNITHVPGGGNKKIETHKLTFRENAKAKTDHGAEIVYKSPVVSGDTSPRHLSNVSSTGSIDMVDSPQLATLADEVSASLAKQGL
# test: Binding affinity to human tau associated NFTs at 100 uM by fluorescence microscopy
Active and inactive are the calls of the source. No cut-off for these calls is given here.
// one of active, inactive, no free text

>>> classification("CC(C)NC(=O)c1nn(-c2ccc([N+](=O)[O-])cc2)c(=O)c2c(N)scc12")
"active"
>>> classification("CC(C)NC(=O)c1nn(-c2ccc(OCCF)cc2)c(=O)c2c(N)scc12")
"active"

With those in mind, consider the next compound.
Assay result, entry CC(C)NC(=O)c1nn(-c2ccc(OCC(O)CF)cc2)c(=O)c2c(N)scc12 (stereo not drawn) — outcome?
inactive

---

# testedSystem: Microtubule-associated protein tau (Homo sapiens)
# test: Binding affinity to human tau associated NFTs at 1 uM by fluorescence microscopy
The source made the active and inactive calls. No cut-off for these calls is given here.
Return exactly one item of active, inactive

Some solved cases for reference:
>>> classification("CC(C)NC(=O)c1nn(-c2ccc([N+](=O)[O-])cc2)c(=O)c2c(N)scc12")
"inactive"
>>> classification("CC(C)NC(=O)c1nn(-c2ccc(OCCF)cc2)c(=O)c2c(N)scc12")
"active"
>>> classification("CC(=C(C#N)C#N)c1ccc2cc(N(C)CCF)ccc2c1")
"active"

Attention now turns to another entry.
Outcome? CC(C)NC(=O)c1nn(-c2ccc(F)cc2)c(=O)c2c(N)scc12
inactive

---

# testedSystem: Amyloid-beta precursor protein (Homo sapiens) (UniProt P05067)
# Sequence (P05067 whole entry): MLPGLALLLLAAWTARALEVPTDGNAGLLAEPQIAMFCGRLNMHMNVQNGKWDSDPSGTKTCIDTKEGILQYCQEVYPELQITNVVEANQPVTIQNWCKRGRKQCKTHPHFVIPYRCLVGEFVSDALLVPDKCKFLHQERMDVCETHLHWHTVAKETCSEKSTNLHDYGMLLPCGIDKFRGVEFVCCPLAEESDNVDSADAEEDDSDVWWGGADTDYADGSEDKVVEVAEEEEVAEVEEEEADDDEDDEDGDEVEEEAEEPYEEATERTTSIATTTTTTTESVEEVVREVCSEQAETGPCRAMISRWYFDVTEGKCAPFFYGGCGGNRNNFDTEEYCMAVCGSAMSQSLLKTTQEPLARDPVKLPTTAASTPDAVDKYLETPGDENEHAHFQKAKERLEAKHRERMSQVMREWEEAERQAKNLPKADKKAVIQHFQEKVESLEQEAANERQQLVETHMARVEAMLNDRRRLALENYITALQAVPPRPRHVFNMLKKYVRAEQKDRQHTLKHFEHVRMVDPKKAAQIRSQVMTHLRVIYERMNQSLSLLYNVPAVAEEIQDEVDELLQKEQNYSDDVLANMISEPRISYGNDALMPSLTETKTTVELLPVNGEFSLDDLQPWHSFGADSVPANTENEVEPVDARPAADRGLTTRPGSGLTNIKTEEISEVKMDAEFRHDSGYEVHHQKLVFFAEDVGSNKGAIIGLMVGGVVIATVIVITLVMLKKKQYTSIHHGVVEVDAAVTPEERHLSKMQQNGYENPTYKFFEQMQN
# test: Binding affinity to human amyloid-beta plaques at 10 uM by fluorescence microscopy
Calls of active or inactive are those of the source. The calls are words filed in the database; no cut-off is given here.
// classify into active, inactive

// known answers, use as guide
>>> classification("CC(C)NC(=O)c1nn(-c2ccc(F)cc2)c(=O)c2c(N)scc12")
"inactive"
>>> classification("CC(C)NC(=O)c1nn(-c2ccc([N+](=O)[O-])cc2)c(=O)c2c(N)scc12")
"inactive"
>>> classification("CC(=C(C#N)C#N)c1ccc2cc(N(C)CCF)ccc2c1")
"active"

Record request — test call for CC(C)NC(=O)c1nn(-c2ccc(OCCF)cc2)c(=O)c2c(N)scc12
active

---

# testedSystem: Amyloid-beta precursor protein (Homo sapiens)
# test: Binding affinity to human amyloid-beta plaques at 100 uM by fluorescence microscopy
Activity calls are given as the source filed them. The rule behind the calls is not given here.
parameter: Activity

Past entries and their recorded results:
>>> result("CC(=C(C#N)C#N)c1ccc2cc(N(C)CCF)ccc2c1")
"Active"
>>> result("CC(C)NC(=O)c1nn(-c2ccc(OCCCF)cc2)c(=O)c2c(N)scc12")
"inactive"
>>> result("CC(C)NC(=O)c1nn(-c2ccc(OCCF)cc2)c(=O)c2c(NC(=O)OC(C)(C)C)scc12")
"inactive"
>>> result("CC(C)(C)OC(=O)c1nn(-c2ccc(OCCF)cc2)c(=O)c2c(N)scc12")
"inactive"
>>> result("CC(C)NC(=O)c1nn(-c2ccc(OCCF)cc2)c(=O)c2c(N)scc12")
"Active"

Activity lookup needed for CC(C)NC(=O)c1nn(-c2ccc(F)cc2)c(=O)c2c(N)scc12 , thanks.
Active

Same lookup for CC(C)NC(=O)c1nn(-c2ccc(OCC(O)CF)cc2)c(=O)c2c(N)scc12 (stereo not drawn) , please.
inactive

Subsequent entry: CC(C)NC(=O)c1nn(-c2ccc([N+](=O)[O-])cc2)c(=O)c2c(N)scc12
Active

The reported measurements were obtained from ChEMBL document CHEMBL2429822.
